Assay: folding enthalpy; higher = less favourable; fluorescence melt of hairpins on a sequencing array, two-state fit
Settings: sodium 0.088 M
The following sequences are listed with their measured folding enthalpy values.
Write it as a number; the unit kcal/mol goes unstated.

INSERT INTO assay_data (seq_text, parameter_measured, obs_value) VALUES
  ('GTCAGCGGAAACGCTGGC (.(((((....))))).)', 'folding enthalpy', -24.6);

// folding enthalpy lookup, key: GATCTAATTTAGATC ((((((...))))))
-30.8

// folding enthalpy lookup, key: GATCGTCATAACGATC ((((((....))))))
-38.8

// folding enthalpy lookup, key: GATCCTCCCAGGATC ((((((...))))))
-35.8

// folding enthalpy lookup, key: GTATACGAAAGTACGTAC ((((((....)))..)))
-14

###

Assay: melting temperature; fluorescence melt of hairpins on a sequencing array, two-state fit, raised by 9.35 °C to match UV melts
Details: sodium 0.088 M
parameter.measured: Tm (°C)
Write it as a number; the unit °C goes unstated.

Past entries and their recorded results:
INSERT INTO measurements (seq_text, parameter_measured, obs_value) VALUES
  ('GAATCCGAAAGGATATTC ((((((....)))..)))', 'Tm', 33.6),
  ('GCACTTGCGAAAGCATGC (((..(((....))))))', 'Tm', 38.6),
  ('GGAACCGAAAGGTATCC ((((((....))).)))', 'Tm', 40.8),
  ('GCACAGCGAAAGCCGAGC ((.(.((....)).).))', 'Tm', 39.3),
  ('GCTGCCGAAAGGCGTAGC ((((((....)))..)))', 'Tm', 50.5),
  ('GCCCAGCGAAAGCGGAGC ((.(.((....)).).))', 'Tm', 53.1);

// Tm lookup, key: GTGGTTGGAAACGACCAC (((((.(....).)))))
54.7

// Tm lookup, key: GAAAGGCGAAAGCCGTTC (((.(((....))).)))
46.7

// Tm lookup, key: GGCTCAGAAATGAGCC ((((((....))))))
67

// Tm lookup, key: GCTAAGAAATTAGC (((((....)))))
39.5

// Tm lookup, key: GATCGTAGATACGATC ((((((....))))))
55.1

// Tm lookup, key: GCTAGGCGAAAGCATAGC ((((.((....)).))))
64.6

###

Assay: folding enthalpy; higher = less favourable; fluorescence melt of hairpins on a sequencing array, two-state fit
Details: sodium 0.088 M
parameter.measured: folding enthalpy (kcal/mol)
Write it as a number; the unit kcal/mol goes unstated.

// folding enthalpy lookup, key: GGGTAGGGAAACCTATCC ((.((((....)))).))
-29.7

// folding enthalpy lookup, key: GCCGTGCGAAAGCATAGC ((..(((....)))..))
-13.6

// folding enthalpy lookup, key: GATCAGCGGCTGATC ((((((...))))))
-51

###

Assay: folding enthalpy; higher = less favourable; fluorescence melt of hairpins on a sequencing array, two-state fit
Conditions: sodium 0.088 M
Is folding enthalpy at least -20 kcal/mol? Then Criterion met. If not, Criterion not met.

Below are worked cases with known answers.
INSERT INTO assay_data (seq_text, assigned_class) VALUES
  ('GGTTGGGGAAACTCGACC (((.(.(....).).)))', 'Criterion not met'),
  ('GCCTCAGGAAACTAAGGC ((((.((....)).))))', 'Criterion not met'),
  ('GCTACTGGAAACAGCAGC (((.(((....))).)))', 'Criterion not met');

Decide: folding enthalpy of GCGTTTGTACGC ((((....)))) >= -20 kcal/mol?
Criterion not met

Decide: folding enthalpy of GCCTGGCGAAAGCCATGC ((.((((....)))).)) >= -20 kcal/mol?
Criterion met

Decide: folding enthalpy of GATCATCTATATGATC ((((((....)))))) >= -20 kcal/mol?
Criterion not met

Decide: folding enthalpy of GTATCAGGAAACCGATAC (((((.(....).))))) >= -20 kcal/mol?
Criterion not met

Decide: folding enthalpy of GCGTACCGACGC ((((....)))) >= -20 kcal/mol?
Criterion not met

Decide: folding enthalpy of GCCACAACGAAAGTTGGC (((..(((....)))))) >= -20 kcal/mol?
Criterion met

Decide: folding enthalpy of GTGAACGAAAGTTCCAC ((((((....))).))) >= -20 kcal/mol?
Criterion met

Decide: folding enthalpy of GGCTCAGAAATGAGCC ((((((....)))))) >= -20 kcal/mol?
Criterion not met

Decide: folding enthalpy of ATAGCGAAAGCTAT (((((....))))) >= -20 kcal/mol?
Criterion met

###

Experiment: melting temperature; fluorescence melt of hairpins on a sequencing array, two-state fit, raised by 9.35 °C to match UV melts
Conditions: sodium 0.088 M
The label t is reserved for Tm strictly under 50 °C; f covers values equal to or above it.

Is 50 °C strictly greater than the sequence's reported Tm? sequence: GCAGTAGGAAACTACCAC (..((((....))))..)
t

###

The following sequences are listed with their measured folding enthalpy values.
Experiment: folding enthalpy; higher = less favourable; fluorescence melt of hairpins on a sequencing array, two-state fit
Conditions: sodium 0.088 M
Write it as a number; the unit kcal/mol goes unstated.

Past entries and their recorded results:
INSERT INTO results (seq_text, units_of_measure, obs_value) VALUES
  ('GCTAGCGAAAGCTTGAGC ((((((....)))..)))', 'kcal/mol', -13.5),
  ('GCTGTGCGAAAGCCCGGC ((.(.((....)).).))', 'kcal/mol', -20),
  ('CGTCACGGAAACGTACG (((.(((....))))))', 'kcal/mol', -22.8),
  ('GGCGTCGAAAGACTGCC ((((((....))).)))', 'kcal/mol', -36.4),
  ('GTGACCGGAAACGGCCAC (((.(((....))).)))', 'kcal/mol', -39);

Next:
// folding enthalpy lookup, key: GACGTCCCGAAAGGGGTC (((..(((....))))))
-10.9

###

Assay: melting temperature; fluorescence melt of hairpins on a sequencing array, two-state fit, raised by 9.35 °C to match UV melts
Settings: sodium 0.088 M
parameter.measured: Tm (°C)
Write it as a number; the unit °C goes unstated.

INSERT INTO results (seq_text, obs_value) VALUES
  ('GCCAACGAAAGTTGAGGC ((((((....)))..)))', 48.5);

// Tm lookup, key: GGATATGGAAACATATCC (((((((....)))))))
54.7

// Tm lookup, key: GTTGTCGAAAGACATAAC ((((((....)))..)))
32.6

###

Experiment: melting temperature; fluorescence melt of hairpins on a sequencing array, two-state fit, raised by 9.35 °C to match UV melts
Conditions: sodium 0.088 M
Is Tm at least 50 °C? Then Condition met. If not, Condition not met.

INSERT INTO assay_data (seq_text, assigned_class) VALUES
  ('GCCCACGAAAGTGCTGGC ((((((....)))..)))', 'Condition not met'),
  ('GCAGACGAAAGTCTTTGC ((((((....)))..)))', 'Condition not met'),
  ('GCTTTCGAAAGAAGGAGC ((((((....)))..)))', 'Condition not met'),
  ('GTAGGCGGAAACACCTAC (((((.(....).)))))', 'Condition not met');

Decide: Tm of GATCAGCGACCTGATC ((((((....)))))) >= 50 °C?
Condition not met

Decide: Tm of GATCGGTCTTCCGATC ((((((....)))))) >= 50 °C?
Condition met

Decide: Tm of GATCAGGTAGCTGATC ((((((....)))))) >= 50 °C?
Condition met

Decide: Tm of GGTAGCGAAAGCTTACC ((((((....))).))) >= 50 °C?
Condition met

Decide: Tm of CGTGGCGGAAACGCTACG (((.(((....))).))) >= 50 °C?
Condition met

###

The following sequences are listed with their measured folding enthalpy values.
Assay: folding enthalpy; higher = less favourable; fluorescence melt of hairpins on a sequencing array, two-state fit
Settings: sodium 0.088 M
Value and unit, in that order.

Past entries and their recorded results:
INSERT INTO assay_data (seq_text, obs_value) VALUES
  ('GATCCGGGAACGGATC ((((((....))))))', '-33.4 kcal/mol'),
  ('GATCCCTATTGGGATC ((((((....))))))', '-43.1 kcal/mol'),
  ('CGTTGCGGAAACGCTACG (((.(((....))).)))', '-33.4 kcal/mol'),
  ('GGCAACGAAAGTTTGCC ((((((....))).)))', '-45.8 kcal/mol'),
  ('GGCTAACGAAAGTTTGCC (((.(((....))).)))', '-61 kcal/mol');

Next:
// folding enthalpy lookup, key: GTGCTACGAAAGTACAC (((.(((....))))))
-25.5 kcal/mol

Every entry's value here was drawn from the array DNA melting data of Ke et al. (doi:10.1101/2024.01.08.574731).
